Ref: PubChem BioAssay (NCI)

# Test system: CAKI-1 renal
# run description: NCI-60 one-dose screen, 48 h (100 = growth as untreated, 0 = no growth, -100 = all killed)
# study conditions: 10 µM unless noted
About 83,000 compounds went through this panel and 20% of them were active in at least one assay; those are over-represented in the sample as a whole.
Please respond with reported growth for every item in the list.
Give bare numbers, in %.

Examples with their reported growth follow.
* CC1=C(C(=O)Nc2ccccc2)C(c2cccc(Cl)c2Cl)n2c(nc3ccccc32)N1 (stereo not given) | 36.4
* COc1ccc2[nH]c(O)c(N=Nc3nc(-c4ccc(Br)cc4)cs3)c2c1 | 2.6
* Fc1ccc(F)c(CNc2nc(SCCN3CCOCC3)nc3c2cnn3CC(Cl)c2ccc(Br)cc2)c1 (stereo not given) | 26.7
* N#CC1=C(c2ccco2)Nc2c(c(-c3ccccc3)nn2-c2ccccc2)C12C(=O)Nc1ccc(Br)cc12 (stereo not given) | 55.9
* O=C(N/N=C/c1c[nH]c2ccccc12)Nc1ccccc1Cl | 16.1

// input: 2 compounds below; output: growth for each
1. O=C(NNC(=O)c1ccc(OCc2nc3ccc(Cl)cc3[nH]2)cc1)Nc1ccc(Cl)c(Cl)c1
2. COc1cc(/C=N/NC(=O)c2ccc(OCc3nc4ccc(Cl)cc4[nH]3)cc2)cc(OC)c1OC

Output:
[91.8, 40.5]

// input: 2 compounds below; output: growth for each
1. Cn1cc(-c2cc(N)n3nc(-c4c[nH]c5ccc(F)cc45)cc3n2)c2cccnc21
2. CS(=O)(=O)Nc1cccc(-n2cnc3cc(-c4ccc(O)cc4)ccc32)c1

Output:
[-70.7, 30.6]

Task: I am curious: what growth value has been reported for `C=CCSc1nnc(-c2c(C)nc3sccn23)o1` ?
Output: 77.9
